Biological target: recombinant human seprase (rhFAP) (Homo sapiens, UniProt Q12884)
Sequence (Q12884 26-760 limits assumed): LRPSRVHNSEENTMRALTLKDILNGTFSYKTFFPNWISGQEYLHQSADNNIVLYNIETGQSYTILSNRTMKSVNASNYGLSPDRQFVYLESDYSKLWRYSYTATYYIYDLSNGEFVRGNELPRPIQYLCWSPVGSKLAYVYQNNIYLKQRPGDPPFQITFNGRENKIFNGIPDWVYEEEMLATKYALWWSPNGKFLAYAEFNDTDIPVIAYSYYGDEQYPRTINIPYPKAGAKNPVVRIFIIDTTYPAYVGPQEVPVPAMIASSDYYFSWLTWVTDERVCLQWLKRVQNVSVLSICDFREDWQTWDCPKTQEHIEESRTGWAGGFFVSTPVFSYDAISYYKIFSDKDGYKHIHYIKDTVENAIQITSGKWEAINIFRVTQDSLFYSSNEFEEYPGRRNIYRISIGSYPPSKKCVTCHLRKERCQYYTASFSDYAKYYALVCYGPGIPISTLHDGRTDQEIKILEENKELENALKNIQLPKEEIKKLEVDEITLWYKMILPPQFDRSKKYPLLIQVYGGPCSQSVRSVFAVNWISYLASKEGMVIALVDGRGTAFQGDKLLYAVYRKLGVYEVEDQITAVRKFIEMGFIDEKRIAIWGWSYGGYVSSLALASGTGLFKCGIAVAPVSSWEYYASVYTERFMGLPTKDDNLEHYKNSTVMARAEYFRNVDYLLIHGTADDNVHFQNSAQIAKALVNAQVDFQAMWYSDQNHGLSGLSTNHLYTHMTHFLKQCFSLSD
Assay: Inhibition of enzymatic activity of recombinant human seprase on Z-Gly-Pro-AMC (fluorescence)
Format: biochemical
Conditions: in vitro data against seprase; read-out: FAP (IC50 nM)
Item-by-item account of log10(IC50)
ASSAY ENDPOINT: log10(IC50) (log10 of the value in nM)

[[record]]
compound = "O=C(NCC(=O)N1CCCC1B(O)O)c1ccc(I)cc1Cl (centres unmarked)"
readout_value = 0.48

[[record]]
compound = "N#C[C@@H]1CCCN1C(=O)CNC(=O)c1ccccc1I"
readout_value = 2.06

[[record]]
compound = "Cc1ccc(I)cc1C(=O)NCC(=O)N1CCCC1B(O)O (centres unmarked)"
readout_value = 1.04

[[record]]
compound = "N#C[C@@H]1CCCN1C(=O)CNC(=O)c1cc(I)cc(C(=O)O)c1"
readout_value = 3.16

[[record]]
compound = "N#C[C@@H]1CCCN1C(=O)CNC(=O)[C@@H](CC(=O)O)NC(=O)c1cccc(I)c1"
readout_value = 3.87

